system: T1, human TMEM106B (human, UniProt Q9NUM4 2-274)
T1 construct: Full-length, on transiently transfected HEK293 cells, or natively expressed on HeLa, U251 and A549 cells; also called huTMEM106B; huTMEM
protocol: FACS A549
// assign 1 if MFI falls strictly below 700, else -1 (ties count as -1)

{"binder": "anti-TMEM106B antibody TM-16 (antibody, V domains shown) VH: EVQLQQSGAELVRPGASVKLSCTTSGFNIKDYYMHWVKQRTEQGLEWIGRIDPEDGETKYAPEFQGKATITSDTSSNTAFLQLSSLTSEDTAVYYCASSQPFTYWGQGTLVTVSA VL: QIVLTQSPAIMSASPGEKLTMTCSASSSLNYMYWYQQKPGSSPRLLIYDTSNLASGVPVRFSGSGSGTSYSLTISRMEAEDGATYYCQQWTSFPPTFGAGTKLELK", "class-label": 1}
{"binder": "anti-TMEM106B antibody TM-3 (antibody, V domains shown) VH: QVTLKESGPGIVQPSQTLSLTCSFSGFSLNTLGRGVGWIRQPSGKGLEWLAKIWWNDDKFYYPALKSRLTISKDTSKNQIFLKIANVDTADSATYYCARIAGGTGAAYWGQGTTLTVSS VL: DIVMTQAAFSNPVTLGTSASISCRSSKSLLHSNGITYLYWYLQKPGQSPQLLISQMSSLASGVPDRFSSGGSGTDFTLRISRVEAEDVGVFYCAQNLELPWTFGGGTKLELK", "class-label": -1}
{"binder": "anti-TMEM106B antibody TM-10 (antibody, V domains shown) VH: QVQLQQSGAELVKPGASVKISCKGSGYAFSSYWMNWVKQRPGKGLEWIGQIYPGDGDTNYNGKFKGKATLTADKSSTTAYIHLSSLTSEDSAVYFCARWGHYDEAMDDWGQGTSVTVSS VL: DVVMTQTPLSLPVSLGDQASISCRSSQSLVHSNGKTYLHWYVQKPGQSPKLLIYKISNRFSGVPDRFSGSGSGTDFTLKISRVEAEDLGVYFCSQITHVPWTFGGGTKLESK", "class-label": -1}
{"binder": "anti-TMEM106B antibody TM-48 (antibody, V domains shown) VH: QVQLQQSGPELVKPGASVKLSCKASGYTFTSYDINWVKQRPGQGLEWIGWIYPRDGNTQYIEKLKGKATLTVDTSSSTAYMELHSLTSEDSAVYFCARWIFYAMDYWGQGTSVTVSS VL: DVLMTQTPLSLPVSLGNQASISCRSSQSIVHGNGNTYLEWYLQKPGQSPKLLIYKVSNRFSGVPDRFSGSGSGTDFTLKISRVEAEDLGVYYCFQGSHLPYTFGGGTKLEIK", "class-label": 1}
{"binder": "anti-TMEM106B antibody TM-25 (antibody, V domains shown) VH: EVQLVESGGDLVKPGGSLRLSCAASGFTFSGYGMSWIRQTPDKRLEWVATISSGGRYTVYPDSVKGRFTMSRDNVKNTLYLQMSSLKSEDTALYYCARDNFYSYAMDYWGLGTSVTVSA VL: DIVMTQAAFSNPVTLGTSASISCRSSKSLLHSNGITYLFWYLQKPGQSPQLLIYQMSNLASGVPDRFSSSGSGTDFTLRISRVEAEDVGVYYCAQNLELWTFGGGTKLEIK", "class-label": -1}

Provenance of the data: patent US20230303681A1
